- Tested on: Plasmodium falciparum
- ASSAY_METHOD_TEXT: Inhibition of Plasmodium falciparum 3D7 in erythrocytes
- Assay type: functional, organism-based
Reported IC50 by item:

Cc1cccnc1NC(P(=O)(O)O)P(=O)(O)O
> 200 µM

Query :: Recorded IC50 for "O=P(O)(O)C(O)(Cc1c[nH]cn1)P(=O)(O)O" , please?
Result :: > 200 µM

Query :: Recorded IC50 for "Nc1ccc(CC(O)(P(=O)(O)O)P(=O)(O)O)cc1" , please?
Result :: > 200 µM

Query :: Recorded IC50 for "CCCCCC(O)(P(=O)(O)O)P(=O)(O)O" , please?
Result :: 5.1 µM
